Measurement record for TrkA (Homo sapiens (Human), UniProt P04629); quantity recorded: IC50.
READOUT_TYPE: IC50

>>> observed_result("CC(C)(O)COc1nc(N2CCOCC2)ccc1NC(=O)c1coc2c1C(=O)NCC2")
"0.0069 µM"
>>> observed_result("CCOc1nc(N2CCN(C(C)=O)CC2)ccc1NC(=O)c1coc2c1C(=O)N([C@@H](C)COC(C)=O)CC2")
"0.0235 µM"
>>> observed_result("CN1CCc2occ(C(=O)Nc3ccc4[nH]cnc4c3)c2C1=O")
"0.428 µM"
>>> observed_result("CN1CCc2occ(C(=O)Nc3ccc(C(N)=O)cc3)c2C1=O")
"0.202 µM"
>>> observed_result("Cc1n[nH]c2ccc(NC(=O)c3coc4c3C(=O)N(C)CC4)cc12")
"1.08 µM"
>>> observed_result("CN1CCN(c2ccc(NC(=O)c3coc4c3C(=O)NCC4)cc2)CC1")
"0.0814 µM"
>>> observed_result("CCOc1nc(N2CCN(C(C)=O)CC2)ccc1NC(=O)c1coc2c1C(=O)N(CCOC)CC2")
"0.0053 µM"
>>> observed_result("CN1CCc2occ(C(=O)Nc3ccc(C(F)(F)F)cn3)c2C1=O")
"1.53 µM"
>>> observed_result("CC1(C)CC(=O)c2c(C(=O)Nc3ccc(N4CCNCC4)nc3)coc2C1")
"0.135 µM"
>>> observed_result("CCOc1nc(N2CCN(C(C)=O)CC2)ccc1NC(=O)c1coc2c1C(=O)NC(C)(C)C2")
"0.0054 µM"
>>> observed_result("O=C(Nc1ccc2cn[nH]c2c1)c1coc2c1C(=O)NCC2")
"0.91 µM"
>>> observed_result("O=C(Nc1ccc(F)cn1)c1coc2c1C(=O)NCC2")
"3.24 µM"
>>> observed_result("CC1(C)CC(=O)c2c(C(=O)Nc3ccc4nn(CCO)cc4c3)coc2C1")
"0.0456 µM"
>>> observed_result("CC(=O)N1CCN(c2ccc(NC(=O)c3coc4c3C(=O)CC(C)(C)C4)cc2)CC1")
"0.0324 µM"
>>> observed_result("COc1cc(N2CCNCC2)ccc1NC(=O)c1coc2c1C(=O)CC(C)(C)C2")
"0.0064 µM"
>>> observed_result("COc1cc(N2CCNCC2)ccc1NC(=O)c1coc2c1C(=O)NC(C)C2 (stereo not drawn)")
"0.0737 µM"
>>> observed_result("CCOc1nc(N2CCN(C(C)=O)CC2)ccc1NC(=O)c1coc2c1C(=O)N(CC(O)CO)C(C)(C)C2 (stereo not drawn)")
"0.0068 µM"
>>> observed_result("O=C(Nc1ccc(N2CCOCC2)cc1)c1coc2c1C(=O)NCC2")
"0.173 µM"

###

Measurement record for TrkA (Homo sapiens (Human), UniProt P04629); quantity recorded: pIC50.
pIC50: −log10 of the molar value.
READOUT_TYPE: pIC50

>>> observed_result("N#Cc1cccc(NC(=O)c2coc3c2C(=O)NCC3)c1")
5.25
>>> observed_result("O=C(Nc1cnccn1)c1coc2c1C(=O)NCC2")
5.49
>>> observed_result("COc1ccc(NC(=O)c2coc3c2C(=O)NCC3)cn1")
5.86
>>> observed_result("COc1nc(N2CCN(C(C)=O)CC2)ccc1NC(=O)c1coc2c1C(=O)NC(C)(C)C2")
7.85
>>> observed_result("CC1(C)CC(=O)c2c(C(=O)Nc3ccc(N4CCN(S(C)(=O)=O)CC4)cc3)coc2C1")
7.45
